testSummary: Permeability of the compound at pH 5 by PAMPA
Type: ADME
conditionDescription: read-out: permeability
outcomeMeasure: Papp (×10⁻⁶ cm/s)

CCOCc1c(C(=O)NCc2cncn2C)cnn1-c1ncc(C)c(N2CCCC2)n1 = 0.8
CCOCc1c(C(=O)NCc2cncn2C)cnn1-c1ncc(C)c(N2CCCCC2)n1 = 1.5
CCOCc1c(C(=O)NCc2cncn2C)cnn1-c1ncc(C)c(OCC)n1 = 1.2

I. CCOCc1c(C(=O)NCc2cncn2C)cnn1-c1ncc(C)c(NC2CCC2)n1
II. CCOCc1c(C(=O)NCc2cncn2C)cnn1-c1ncc(C)c(-c2cccs2)n1
III. CCCCc1c(C(=O)NCc2cncn2C)cnn1-c1ncc(C)c(-c2cccs2)n1
Prompt: Put the entries in order of Papp, starting with the largest number. Response field: labels, in requested order.
Completion: III, II, I
